Tested on: XIP peptide (Xip251-270) binding
Assay: small-molecule binders of XIP peptide, primary screen, biochemical, small-molecule microarray, fluorescence 635/667 nm, 0.1 µg/mL protein (AID 1182)
Conditions: fluorescent protein binding, 635 nm, higher = more signal, called active from +8 up or from −8 down
Quick reference: composite z-score of the listed items.
Write no unit; give the number alone.

Enquiry: Supply measured composite z-score of O=C1[C@H]2[C@H]3[C@H](O)[C@H](O)CC(=NO[C@@H]4O[C@H](CO)[C@@H](O)[C@H](O)[C@H]4O)[C@H]3CC[C@H]2C(=O)N1c1ccc(F)cc1F in your reply.
Return: 0.391

Enquiry: Supply measured composite z-score of CON=C(C)CCN1CCCc2nc(C)c(C)cc21 in your reply.
Return: -0.0879

Enquiry: Supply measured composite z-score of CCN1C(=O)[C@H]2[C@H]3[C@H](O)[C@H](O)CC(=NO[C@H](C)c4cn([C@H](CO)Cc5ccccc5)nn4)[C@@H]3CC[C@H]2C1=O in your reply.
Return: 1.66

====

Assay: small-molecule microarray binders of probe aEGFR, primary screen, biochemical, biotinylated probe, 635/667 nm fluorescence (AID 1097);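 note: probe is a biotinylated anti-EGFR antibody binding compounds printed on slides; score combines fluorescence near 667 nm and signal to noise of each spot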
Conditions: higher = more signal
Threshold rule: composite z-score greater than or equal to -0.1 is t; below that, f.

Enquiry: Would you say C=CC[C@@H]1C=C[C@H](ON=C(C)CCN2CCCCc3nc(C)c(C)cc32)[C@@H](CO)O1 shows composite z-score at minimum -0.1?
Return: t

====

Quick reference: z-score of the listed items.
Assay: E. coli acrAB mutant growth effects, primary screen, E. coli filamentation inducers, strain DRC39, OD650, 48 h (AID 1179);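 note: screen aims at cell division blockers that make cells filament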
Settings: E. coli DRC39 delta-acrAB growth, higher = more signal, called active from +8 up or from −8 down
Write no unit; give the number alone.

These recorded examples may help you get a feel for the data.
- compound: "O=C1C2=CC[C@H]3C(=O)N(c4ccc(F)cc4F)C(=O)[C@H]3[C@H]2[C@H](O)[C@@H]2O[C@H]12"
  measure: "z-score"
  numeric result: -0.0889
- compound: "COC(=O)CC=C[C@@H](C)[C@@H](C=NOC(C)CN1CCCCc2nc(C)c(C)cc21)OC (stereo not given in full)"
  measure: "z-score"
  numeric result: 0.257
- compound: "CCOC(=O)[C@H](CC(C)C)NC(=O)CCC1CC(OC(=O)NCc2ccc3c(c2)OCO3)CC2(CCCC(COC(=O)NCc3ccccc3)O2)O1 (stereo not given in full)"
  measure: "z-score"
  numeric result: -0.0559
- compound: "CC(CCN1CCCc2nc(C)c(C)cc21)=NO[C@H](C)c1cn([C@@H]2COC[C@H]2O)nn1"
  measure: "z-score"
  numeric result: 0.741

# next compound below
Enquiry: Supply measured z-score of CCN1C(=O)[C@H]2[C@H]3[C@H](O)[C@H](O)CC(=NO[C@@H]4O[C@H](CO)[C@@H](O)[C@H](O)[C@H]4O)[C@H]3CC[C@H]2C1=O in your reply.
Return: -0.446

====

Quick reference: z-score of the listed items.
Assay: basal 3T3-L1 adipocyte mitochondrial potential changes, profiling panel, cell-based, JC-1 fluorescence, 3T3-L1 adipocytes, 24 h, 100 nL compound (AID 1168)
Settings: JC-1 mitochondrial fluorescence, higher = more signal, called active from +8 up or from −8 down
Write no unit; give the number alone.

These recorded examples may help you get a feel for the data.
- molecule: "CO[C@@H]1COC(=O)[C@H](COCc2ccccc2)NC(=O)CC=C[C@@H](C)[C@H](OC)COC(=O)[C@@H](C)NC(=O)CC=C[C@H]1C"
  numeric result: -0.828
- molecule: "CCOC(=O)[C@H](CC(C)C)NC(=O)CCC1CC(OC(=O)NCCc2ccc(F)cc2)CC2(CCCC(COC(=O)NCc3cccc4ccccc34)O2)O1 (stereo partly specified)"
  numeric result: -0.0268
- molecule: "O=C1[C@H]2[C@H]3[C@H](O)[C@H](O)CC(=NOC[C@@H](O)COCc4ccco4)[C@@H]3CC[C@H]2C(=O)N1C1CCCCC1"
  numeric result: -0.181
- molecule: "CC(CCC(=O)OC[C@H]1O[C@H](C#Cc2ccccc2)C=C[C@@H]1Oc1ccc(C)cc1)=NOC(C)CN1CCCc2nc(C)c(C)cc21 (stereo partly specified)"
  numeric result: -2.38
- molecule: "CCC1=NOC(CCC2CC(OC(=O)NCc3cccc4c3OCO4)CC3(CCCC(COC(=O)NCCc4ccc(Cl)cc4)O3)O2)C1 (stereo unspecified)"
  numeric result: 0.453

# next molecule below
Enquiry: Supply measured z-score of COC(=O)[C@H](C)NC(=O)CCC1CC(OC(=O)NCc2cccc3ccccc23)CC2(CCCC(COC(=O)NCCCN3CCCC3=O)O2)O1 (stereo partly specified) in your reply.
Return: 0.338
